target.of.assay: PDE 2 (Homo sapiens, UniProt O00408)
Sequence (O00408 whole entry): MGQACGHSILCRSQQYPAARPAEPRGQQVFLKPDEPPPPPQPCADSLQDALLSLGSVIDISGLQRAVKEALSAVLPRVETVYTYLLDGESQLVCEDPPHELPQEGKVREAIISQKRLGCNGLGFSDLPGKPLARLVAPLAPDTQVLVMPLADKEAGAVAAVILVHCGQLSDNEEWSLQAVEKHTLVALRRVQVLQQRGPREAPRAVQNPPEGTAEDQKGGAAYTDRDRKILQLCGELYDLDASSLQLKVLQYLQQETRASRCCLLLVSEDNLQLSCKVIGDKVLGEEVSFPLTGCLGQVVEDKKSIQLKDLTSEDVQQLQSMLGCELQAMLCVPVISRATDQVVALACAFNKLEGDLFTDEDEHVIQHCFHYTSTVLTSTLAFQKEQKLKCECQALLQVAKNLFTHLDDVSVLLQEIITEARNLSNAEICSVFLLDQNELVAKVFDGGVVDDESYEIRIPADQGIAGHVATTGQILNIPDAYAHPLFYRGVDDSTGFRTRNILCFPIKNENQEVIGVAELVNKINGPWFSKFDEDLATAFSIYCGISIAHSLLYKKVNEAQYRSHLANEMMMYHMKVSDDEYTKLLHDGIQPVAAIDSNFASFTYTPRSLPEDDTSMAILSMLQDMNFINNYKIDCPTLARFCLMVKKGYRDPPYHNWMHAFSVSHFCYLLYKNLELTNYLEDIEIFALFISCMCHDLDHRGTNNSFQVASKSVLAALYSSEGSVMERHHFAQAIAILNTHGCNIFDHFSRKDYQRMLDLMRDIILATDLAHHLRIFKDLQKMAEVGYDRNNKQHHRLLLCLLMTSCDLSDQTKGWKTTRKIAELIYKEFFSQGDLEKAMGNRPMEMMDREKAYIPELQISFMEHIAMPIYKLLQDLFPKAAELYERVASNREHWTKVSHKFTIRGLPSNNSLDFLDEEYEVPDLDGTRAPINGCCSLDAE
Collected IC50 values appear next to each entry.

## Input Please look up its IC50: COc1ccc(CNc2nc(-c3ccc4c(c3)OCO4)nc3sc4c(c23)CCN(Cc2ccccc2)C4)cc1Cl
## Output 3.9 µM

## Input Please look up its IC50: COC(=O)c1nc(NCc2ccc(OC)c(Cl)c2)c2c3c(sc2n1)CN(Cc1ccccc1)CC3
## Output > 10 µM

Others:
## Input Please look up its IC50: COc1ccc(CNc2nc(C(=O)NC3CC3)nc3sc4c(c23)CCN(C(C)C)C4)cc1Cl
## Output > 10 µM

## Input Please look up its IC50: COc1ccc(CNc2nc(-c3ccncc3)nc3sc4c(c23)CCN(C)C4)cc1Cl
## Output 2 µM

* * *

target.of.assay: PDE 4 (cGMP non-inhibitable cAMP PDE)
assay.method.text: Phosphodiesterase inhibiting activity, PDE 4
measurement.setup: isozyme from dog kidney; 1 μM [3H]-cAMP or [3H]-cGMP; read-out: Inhibition of PDE Activity: IC50 PDE 4
Collected pIC50 values appear next to each entry.
Conceptually, pIC50 converts a concentration in mol/L into minus its log10.

## Input Return pIC50 measured with PDE 4 (cGMP non-inhibitable cAMP PDE) given this compound: COc1ccc(CNc2nc(C(=O)Nc3ccccc3)nc3sc4c(c23)CCN(C(C)C)C4)cc1Cl
## Output 5.08

Let's switch to this compound now.
## Input Return pIC50 measured with PDE 4 (cGMP non-inhibitable cAMP PDE) given this compound: COc1ccc(CNc2nc(-c3ccco3)nc3sc4c(c23)CCN(C)C4)cc1Cl
## Output 5.44

* * *

target.of.assay: PDE 1 (Ca-calmodulin activatable PDE)
assay.method.text: Phosphodiesterase inhibiting activity, PDE 1
measurement.setup: isozyme from dog heart; 1 μM [3H]-cAMP or [3H]-cGMP; read-out: Inhibition of PDE Activity: IC50 PDE 1
Protocol: Pharmacological Test Example 1: Phosphodiesterase Inhibiting Activity Cyclic nucleotide phosphodiesterases from human platelets and from the heart and kidney of a dog were eluted by the concentration gradient method with 70 to 1000 mM of sodium acetate on DEAE-cellulose column chromatography (Whatman Co. Ltd., DE-52, φ3.2×13 cm) according to the method of Thompson and others (Thompson W. J., et al., Advances in Cyclic Nucleotide Research: 10, 69-92, 1979), and separated into isozymes. […]
pIC50: −log10 of the molar value.
Collected pIC50 values appear next to each entry.

## Input Please look up its pIC50: COC(=O)c1nc(NCc2ccc(OC)c(Cl)c2)c2c3c(sc2n1)CN(Cc1ccccc1)CC3 [1-65]
## Output < 5.00

## Input Please look up its pIC50: COc1ccc(CNc2nc(C(=O)Nc3ccncc3)nc3sc4c(c23)CCN(C)C4)cc1Cl [1-58]
## Output < 5.00

* * *

The next entries give measured IC50 for PDE 2 (Homo sapiens).
Write the answer as a number in µM, unit excluded.

## Input Return IC50 measured with PDE 2 (Homo sapiens) given this molecule: COc1ccc(CNc2nc(-c3cccnc3)nc3sc4c(c23)CCN(Cc2ccccc2)C4)cc1Cl [1-4]
## Output 2.7

Let's switch to this molecule now.
## Input Return IC50 measured with PDE 2 (Homo sapiens) given this molecule: COc1ccc(CNc2nc(C(N)=O)nc3sc4c(c23)CCN(C)C4)cc1Cl [1-83]
## Output 3.1

* * *

The next entries give measured IC50 for PDE 5 (cGMP specific PDE) (Homo sapiens, UniProt O76074).
Write the answer as a number in nM, unit excluded.

Below, 3 compounds whose answers are already recorded.
## Input Return IC50 measured with PDE 5 (cGMP specific PDE) (Homo sapiens, UniProt O76074) given this compound: COc1ccc(NC(=O)c2nc(NCc3ccc(OC)c(Cl)c3)c3c4c(sc3n2)CN(C)CC4)cc1
## Output 2.4

## Input Return IC50 measured with PDE 5 (cGMP specific PDE) (Homo sapiens, UniProt O76074) given this compound: CCOC(=O)N1CCc2c(sc3nc(-c4ccncc4)nc(NCc4ccc(OC)c(Cl)c4)c23)C1
## Output 0.54

## Input Return IC50 measured with PDE 5 (cGMP specific PDE) (Homo sapiens, UniProt O76074) given this compound: COC(=O)c1ccc(NC(=O)c2nc(NCc3ccc(OC)c(Cl)c3)c3c4c(sc3n2)CN(C)CC4)cc1
## Output 53

Others:
## Input Return IC50 measured with PDE 5 (cGMP specific PDE) (Homo sapiens, UniProt O76074) given this compound: COc1ccc(CNc2nc(C(=O)Nc3ccccc3)nc3sc4c(c23)CCN(Cc2ccccc2)C4)cc1Cl
## Output 0.39

## Input Return IC50 measured with PDE 5 (cGMP specific PDE) (Homo sapiens, UniProt O76074) given this compound: COc1ccc(CNc2nc(C(=O)Nc3ccccc3)nc3sc4c(c23)CCN(C(C)C)C4)cc1Cl
## Output 1.4

* * *

target.of.assay: PDE 4 (cGMP non-inhibitable cAMP PDE)
assay.method.text: Phosphodiesterase inhibiting activity, PDE 4
measurement.setup: isozyme from dog kidney; 1 μM [3H]-cAMP or [3H]-cGMP; read-out: Inhibition of PDE Activity: IC50 PDE 4
measure.name: IC50

## Input Please look up its IC50: COc1ccc(NC(=O)c2nc(NCc3ccc(OC)c(Cl)c3)c3c4c(sc3n2)CN(C)CC4)cc1
## Output > 10 µM

## Input Please look up its IC50: COc1ccc(CNc2nc(C(=O)Nc3ccccc3)nc3sc4c(c23)CCN(C)C4)cc1Cl
## Output > 10 µM

Let's switch to this compound now.
## Input Please look up its IC50: COc1ccc(CNc2nc(C(=O)NC3CC3)nc3sc4c(c23)CCN(C(C)C)C4)cc1Cl
## Output > 10 µM

* * *

target.of.assay: PDE 1 (Ca-calmodulin activatable PDE)
assay.method.text: Phosphodiesterase inhibiting activity, PDE 1
measurement.setup: isozyme from dog heart; 1 μM [3H]-cAMP or [3H]-cGMP; read-out: Inhibition of PDE Activity: IC50 PDE 1
measure.name: IC50

Below, 2 compounds whose answers are already recorded.
## Input Please look up its IC50: COc1ccc(CNc2nc(C(N)=O)nc3sc4c(c23)CCN(C)C4)cc1Cl
## Output 1.3 µM

## Input Please look up its IC50: CCOC(=O)c1nc(NCc2ccc(OC)c(Cl)c2)c2c3c(sc2n1)CN(C)CC3
## Output > 10 µM

Others:
## Input Please look up its IC50: COc1ccc(CNc2nc(C(=O)Nc3cccnc3)nc3sc4c(c23)CCN(C)C4)cc1Cl
## Output > 10 µM

* * *

target.of.assay: PDE 2 (Homo sapiens)
Construct: eluted by the concentration gradient method with 70 to 1000 mM of sodium acetate on DEAE-cellulose column chromatography; from tissue
assay.method.text: Phosphodiesterase inhibiting activity, PDE 2
Format: biochemical
measurement.setup: 1 μM [3H]-cAMP or [3H]-cGMP; source of isozyme not given; read-out: Inhibition of PDE Activity: IC50 PDE 2
Description: [Worded in the source for another target; this target is reported under the same test.] Pharmacological Test Example 1: Phosphodiesterase Inhibiting Activity Cyclic nucleotide phosphodiesterases from human platelets and from the heart and kidney of a dog were eluted by the concentration gradient method with 70 to 1000 mM of sodium acetate on DEAE-cellulose column chromatography (Whatman Co. Ltd., DE-52, φ3.2×13 cm) according to the method of Thompson and others (Thompson W. J., et al., Advances in Cyclic Nucleotide Research: 10, 69-92, 1979), and separated into isozymes. […]
pIC50: −log10 of the molar value.
measure.name: pIC50

## Input Please look up its pIC50: COc1ccc(CNc2nc(C(=O)Nc3ccccc3)nc3sc4c(c23)CCN(C(C)C)C4)cc1Cl [1-75]
## Output < 5.00

Others:
## Input Please look up its pIC50: COc1ccc(CNc2nc(C(=O)Nc3nccs3)nc3sc4c(c23)CCN(C)C4)cc1Cl [1-57]
## Output < 5.00

## Input Please look up its pIC50: COc1ccc(CNc2nc(C(=O)NCc3ccccc3)nc3sc4c(c23)CCN(C)C4)cc1Cl [1-79]
## Output < 5.00
